Origin of values: PubChem BioAssay (NCI)

System: OVCAR-3 ovarian
Experiment: NCI-60 one-dose screen, 48 h
Details: 10 µM unless noted
Compounds without any hit were thinned out: in the full panel of roughly 83,000, 20% have a hit. Calls of active or inactive are those of the source. The calls were made as follows: active = growth percent below 10; inactive = the rest.
Log the outcome using a class from true (1) = active, false (0) = inactive

Below are worked cases with known answers.
COc1ccc(-c2c3c(nc4n[nH]c(-c5ccc(Cl)cc5)c24)-c2ccccc2C(=O)C3=O)cc1 :: true (1)
Cn1c2ccccc2c2c3c(c4c5ccccc5[nH]c4c21)C(=O)N(N)C3=O :: false (0)
O=C(O)c1cccc2c1-c1ccccc1C2=O :: false (0)
COc1ccc(/C(=C/c2ccc3ccccc3c2)c2nn[nH]n2)cc1OC :: true (1)
CCc1ccc(C(c2ccc(CC)cc2)C(Cl)(Cl)CCl)cc1 :: false (0)
COc1ccc(-c2cc(=O)[nH]c3c(OC)c4ccccc4c(OC)c23)cc1 :: true (1)
CS(=O)(=O)c1c(Nc2ccccc2)n[nH]c1N :: false (0)
Nc1cc(O)cc2cccnc12 :: false (0)

What did this assay record as the result for CCCCCCCCCC(=O)Oc1ccc(/C(=C(/C)c2ccccc2)c2ccc(OCCN3CCCC3)cc2)cc1 ?
false (0)

Hi, sorry to bother you, what did the test record for O=C(CCCCN1CCOCC1)Nc1ccc(Cn2nnc3c2C(=O)c2nnn(Cc4ccc(NC(=O)CCCCN5CCOCC5)cc4)c2C3=O)cc1 ?
true (1)

====

Items are presented alongside their recorded growth.
Test system: SF-295 CNS
Test: NCI-60 one-dose screen, 48 h (100 = growth as untreated, 0 = no growth, -100 = all killed)
Conditions: 10 µM unless noted
About 83,000 compounds went through this panel and 20% of them were active in at least one assay; those are over-represented in the sample as a whole.
Give the value, in units of %, as a plain number.

Some entries whose results are on file:
CN(C)CCCC(=O)Nc1ccc(Cn2nnc3c2C(=O)c2nnn(Cc4ccc(NC(=O)CCCN(C)C)cc4)c2C3=O)cc1 :: 77.8
COc1ccc(/C=C/C(=O)c2ccc(NC(=O)c3cc4cc5ccccc5nc4s3)cc2)cc1OC :: 99.4
O=c1[nH]c(-c2ccccn2)nc2sc3c(c12)CCCCC3 :: 33.1
Cc1cc2c(cc1C)NC1=C(N2)OC(c2c3ccccc3cc3ccccc23)C1=O (stereo not given) :: -1.93

For CCCC(=O)Oc1ccc(/C(=C(/CC)Cc2ccccc2)c2ccc(OCCN3CCCC3)cc2)cc1 , write its growth.
100

For the molecule COc1ccc(-c2nn(-c3ccccc3)cc2/C=C/C(=O)OCc2cn(-c3ccc(F)c(Cl)c3)nn2)cc1 , give its reported growth.
97.3

Answer with reported growth of Nc1c(C(=O)Nc2cccc3c2OCCO3)sc2nc3c(cc12)CN(Cc1ccccc1)CC3
39.7

// Input: Cc1ccc(SCN2CCN(c3cccc(Cl)c3)CC2)cc1 . Output its growth only.
97.3

Using known records, supply growth for COc1cccc(NC(=O)c2sc3nc4c(cc3c2N)CN(Cc2ccccc2)CC4)c1
49.6

State its growth: C=CC[N+]1(CC)CCN=C1CCCCCCCCCCCCCCCCC (stereo not given)
-31.4

====

System: UO-31 renal
Experiment: NCI-60 one-dose screen, 48 h (100 = growth as untreated, 0 = no growth, -100 = all killed)
Conditions: 10 µM unless noted
About 83,000 compounds went through this panel and 20% of them were active in at least one assay; those are over-represented in the sample as a whole.
Threshold 90%. growth below it: fulfilled. growth at it or above: not fulfilled.

# example entries with known answers
Cc1ccc(/C=C2\Oc3cc(OCC(=O)c4ccc(Cl)cc4)ccc3C2=O)cc1 :: fulfilled
C[C@@H]1CC[C@@H]2[C@@H]1[C@H](OC(=O)/C=C/c1ccccc1)[C@]1(c3ccccc3)C[C@@H](OC(=O)CO)[C@@]2(C)O1 :: fulfilled
COc1cc(C2CC(=O)Nc3c2c(C)nn3-c2nc3ccccc3[nH]2)cc(OC)c1OC (stereo not drawn) :: not fulfilled
CCCCCCCCCCCCCCCCCCSC1=CC(=O)C(OC)=C(OC)C1=O :: fulfilled
O=C1c2ccccc2-c2nccc3cc(Cl)nc1c23 :: fulfilled

We next turn to a different molecule, shown below.
Report whether reported growth is lower than 90% (strictly) for CCc1ccc(C(c2ccc(CC)cc2)C(Cl)(Cl)CCl)cc1
fulfilled
